Listed below: pIC50 values for each entry.
- System: MDA-MB-231 (2LMP) cells
- measurement-protocol: Cell growth of MDA-MB-231 (2LMP) cells (WST)
- Type: cell-based
- test-context: Homo sapiens, read-out: IC50 of cell growth inhibition
pIC50: −log10 of the molar value.

Study these solved cases before continuing.
Per the records, this compound ( CCCCCCCCCCCc1cc(Cc2ccccc2)c(O)c(O)c1O ) has pIC50 equal to 4.70 to 7.00

Entry CC(C)Cc1ccc(Cc2cc(CCCC3CCCCC3)c(O)c(O)c2O)cc1 — recorded pIC50 = 4.70 to 7.00

More entries:
// field: pIC50; key: O=C(c1ccc(Oc2ccccc2)cc1)c1cc(Cc2ccccc2)c(O)c(O)c1O ; value = 4.70 to 7.00

Notebook: CC(C)c1cc(CCc2ccc3ccccc3c2)c(O)c(O)c1O , pIC50 read as 4.70 to 7.00

Short answer for CC(C)c1cc(Cc2cc(Cc3ccccc3)c(O)c(O)c2O)ccc1Oc1ccc([N+](=O)[O-])cc1C(F)(F)F : pIC50 was 4.70 to 7.00

Item: CCCCCCc1cc(C(C)C)c(O)c(O)c1O | pIC50: 4.70 to 7.00

meta.source: patent US8557812B2
